biological target: CYP2C9 (Homo sapiens, UniProt P11712); construct: tissue Eurofins protocol ITEMG232; host or cells: human liver microsomes; assay: CYP inhibition, human liver microsomes; format: in vitro ADME; conditions: probe diclofenac; 10 μM, substrate diclofenac, human liver microsomes; read-out: CYP2C9 Inh %
Sequence (P11712 whole entry): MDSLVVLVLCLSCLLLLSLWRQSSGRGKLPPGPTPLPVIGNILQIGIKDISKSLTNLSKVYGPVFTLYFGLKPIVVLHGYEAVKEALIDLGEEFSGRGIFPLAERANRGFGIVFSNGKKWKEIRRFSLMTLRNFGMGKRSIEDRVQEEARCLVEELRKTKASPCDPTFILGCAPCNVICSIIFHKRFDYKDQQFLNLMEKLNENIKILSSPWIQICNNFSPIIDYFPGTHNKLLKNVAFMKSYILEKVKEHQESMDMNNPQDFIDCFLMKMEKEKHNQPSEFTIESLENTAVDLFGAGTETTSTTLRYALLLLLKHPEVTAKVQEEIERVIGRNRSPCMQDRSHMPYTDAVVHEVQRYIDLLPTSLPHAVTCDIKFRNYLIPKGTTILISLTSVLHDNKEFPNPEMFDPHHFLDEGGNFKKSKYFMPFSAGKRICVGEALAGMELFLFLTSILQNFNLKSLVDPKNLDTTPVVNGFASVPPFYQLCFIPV
Kindly state inhibition at 10 µM for each of the entries shown.
Number only, in %; omit the unit.

Look up inhibition at 10 µM for this compound: CCNC(=O)NS(=O)(=O)c1sc(CC(C)C)cc1-c1ccc(Cn2ccnc2C(C)(C)C)c(F)c1 [Example 6] 39.7

What about CC(C)Cc1cc(-c2ccc(Cn3ccnc3C(C)(C)C)c(F)c2)c(S(=O)(=O)NC(=O)NCc2cccs2)s1 [Example 7] ? 76.3

CC(C)Cc1cc(-c2ccc(Cn3ccnc3C(C)(C)C)cc2)c(S(=O)(=O)NC(=O)NCc2ccco2)s1 [Example 1] ? 58.4

Repeat with CC(C)Cc1cc(-c2ccc(Cn3ccnc3C(C)(C)C)cc2)c(S(=O)(=O)NC(=O)NCc2ccccn2)s1 [Example 4] 43.5

Also check CC(C)Cc1cc(-c2ccc(Cn3ccnc3C(C)(C)C)cc2)c(S(=O)(=O)NC(=O)NCc2cccs2)s1 [Example 2] 64.6

Please give the result for CC(C)Cc1cc(-c2ccc(Cn3ccnc3C(C)(C)C)c(F)c2)c(S(=O)(=O)NC(=O)NCc2ccccn2)s1 [Example 5] too. 62.1
